# System: P12-Ichikawa
# MEASUREMENT_PROTOCOL: cell viability relative to DMSO control; higher = less cytotoxic
# CONDITION_DETAILS: HPLM + 10% dialyzed FBS; 48 h; 0.0632 µM
# Lookup of reported cell viability keyed by entry
The response must be a number in % with no trailing unit.

STRUCTURE_SMILES_STRING	MEASUREMENT_TARGET	NUMERIC_RESULT
CCc1c(O)cc(O)c(C(=O)c2ccc(OCCN3CCOCC3)c(OC)c2)c1CC(=O)N(CCOC)CCOC	P12-Ichikawa	112
NC(=O)c1ccc(-c2nc(-c3ccc4c(c3)OCO4)c(-c3ccccn3)[nH]2)cc1	P12-Ichikawa	127
C/C(=C\c1csc(C)n1)[C@@H]1C[C@@H]2O[C@]2(C)CCC[C@H](C)[C@H](O)[C@@H](C)C(=O)C(C)(C)[C@@H](O)CC(=O)O1	P12-Ichikawa	28.1

Returns the measured cell viability for the input compound. Input: CCCCCCCCOc1ccccc1C(=O)Nc1ccc(C(=O)OCC[N+](C)(CC)CC)cc1
97.7

Note, next up: COc1cc(NC(=O)c2ccc(-c3ccc(Cl)cc3)o2)cc(OC)c1
115

* * *

# Tested on: NOMO1
# MEASUREMENT_PROTOCOL: AUC of viability dose-response curve (% viability x log10 dose units); higher = less sensitive
# CONDITION_DETAILS: HPLM + 10% dialyzed FBS; 48 h
ASSAY_ENDPOINT: AUC of viability dose-response curve

Please review the entries below; each comes with its answer.
STRUCTURE_SMILES_STRING	RESULT
COc1ccc2c(OCc3nnc4ccc(-c5ccccc5)nn34)ccnc2c1	443
COc1cc(Nc2ncc(F)c(Nc3ccc4c(n3)N(COP(=O)(O)O)C(=O)C(C)(C)O4)n2)cc(OC)c1OC	472
NCCS(=O)(=O)O	441

# next compound below
Returns the measured AUC of viability dose-response curve for the input compound. Input: CO[C@H]1/C=C/O[C@@]2(C)Oc3c(C)c(O)c4c(O)c(c(/C=N\N5CCN(C6CCCC6)CC5)c(O)c4c3C2=O)NC(=O)/C(C)=C\C=C\[C@H](C)[C@H](O)[C@@H](C)[C@@H](O)[C@@H](C)[C@H](OC(C)=O)[C@@H]1C
308

* * *

# Lookup of reported cell viability keyed by entry
# Test system: SEM cells
# MEASUREMENT_PROTOCOL: cell viability relative to DMSO control; higher = less cytotoxic
# CONDITION_DETAILS: RPMI 5 mM glucose + 10% dialyzed FBS; 48 h; 0.0211 µM
The response must be a number in % with no trailing unit.

COMPOUND	NUMERIC_RESULT
CCOC(CN1C(=O)[C@](CC(=O)Nc2ccc(C)cc2)(NC(=O)Nc2ccc(C)cc2)c2ccccc21)OCC	113
CCc1c(O)cc(O)c(C(=O)c2ccc(OCCN3CCOCC3)c(OC)c2)c1CC(=O)N(CCOC)CCOC	106
CO[C@H]1/C=C/O[C@@]2(C)Oc3c(C)c(O)c4c(O)c(c(/C=N\N5CCN(C6CCCC6)CC5)c(O)c4c3C2=O)NC(=O)/C(C)=C\C=C\[C@H](C)[C@H](O)[C@@H](C)[C@@H](O)[C@@H](C)[C@H](OC(C)=O)[C@@H]1C	47.5
C/C(=C\c1csc(C)n1)[C@@H]1C[C@@H]2O[C@]2(C)CCC[C@H](C)[C@H](O)[C@@H](C)C(=O)C(C)(C)[C@@H](O)CC(=O)O1	50.3
OC(CCN1CCCCC1)(C2CC\3CC2\C=C3)C4=CC=CC=C4 (stereo not given)	70.2

Returns the measured cell viability for the input compound. Input: O=C1CCC[C@@H]2[C@H]3CCC[N+]4([O-])CCC[C@@H](CN12)[C@@H]34 (stereo not given in full)
97.9

Note, next up: C=C[C@H]1CN2CCC1C[C@@H]2[C@@H](O)c1ccnc2ccccc12 (stereo not given in full)
106

Note, next up: Nc1nc2ccc(OC(F)(F)F)cc2s1
131

Note, next up: CC(C[N+](C)(C)C)OC(N)=O (stereo not given)
114

* * *

# System: SEM cells
# MEASUREMENT_PROTOCOL: cell viability relative to DMSO control; higher = less cytotoxic
# CONDITION_DETAILS: HPLM + 10% dialyzed FBS; 48 h; 0.00702 µM
ASSAY_ENDPOINT: cell viability (%)
The response must be a number in % with no trailing unit.

COMPOUND	cell viability, %
FC(F)(F)C1=CC=C2C(SCCCCCO\C3=C\O\C(CN4CCOCC4)=C/C3=O)=CC=NC2=C1	107
CNC1CCCN(c2c(F)cc3c(=O)c(C(=O)O)cn(C4CC4)c3c2OC)C1 (stereo not drawn)	131

Returns the measured cell viability for the input compound. Input: C[C@H](NC(=O)Cc1cc(F)cc(F)c1)C(=O)N[C@@H]1C(=O)N(C)c2ccccc2-c2ccccc21
103

Note, next up: CC(=O)C1=C(O)C2(C)C(=CC1=O)Oc1c(C(C)=O)c(O)c(C)c(O)c12 (stereo not drawn)
123

Note, next up: CCOc1cc(/C=C2/C(=O)N(c3ccccc3)N=C2C)cc(Cl)c1OCC(=O)OC
84

* * *

# Test system: SEM cells
# MEASUREMENT_PROTOCOL: cell viability relative to DMSO control; higher = less cytotoxic
# CONDITION_DETAILS: RPMI 5 mM glucose + 10% FBS; 48 h; 0.0211 µM
# Lookup of reported cell viability keyed by entry
The response must be a number in % with no trailing unit.

COMPOUND	UNIT_OF_MEASUREMENT	cell viability
FC(F)(F)C1=CC=C2C(SCCCCCO\C3=C\O\C(CN4CCOCC4)=C/C3=O)=CC=NC2=C1	%	67.2
C/C(=C\c1csc(C)n1)[C@@H]1C[C@@H]2O[C@]2(C)CCC[C@H](C)[C@H](O)[C@@H](C)C(=O)C(C)(C)[C@@H](O)CC(=O)O1	%	19.1
CN1C2=CC(=O)/C(=N/NC(N)=O)C=C2CC1S(=O)(=O)[O-].[Na+] (configuration not stated)	%	115
CCCC1=N[N](C)C2=C1\N=C(/NC2=O)C3=CC(=CC=C3OCC)[S+]([O-])(=O)N4CCN(C)CC4	%	85.9
O=C1CCC[C@@H]2[C@H]3CCC[N+]4([O-])CCC[C@@H](CN12)[C@@H]34 (some centres not stated)	%	94.7

Can you look up cell viability on SEM cells for CNC(=O)c1cc(Oc2ccc(NC(=O)Nc3ccc(Cl)c(C(F)(F)F)c3)cc2)ccn1 ?
89.8

Note, next up: Cc1cccc(N(C)C(=S)Oc2ccc3ccccc3c2)c1
90.8

* * *

# System: SEM cells
# MEASUREMENT_PROTOCOL: cell viability relative to DMSO control; higher = less cytotoxic
# CONDITION_DETAILS: RPMI 5 mM glucose + 10% FBS; 48 h; 0.19 µM
ASSAY_ENDPOINT: cell viability (%)
The response must be a number in % with no trailing unit.

Please review the entries below; each comes with its answer.
STRUCTURE_SMILES_STRING	UNIT_OF_MEASUREMENT	cell viability
CCCC1=N[N](C)C2=C1\N=C(/NC2=O)C3=CC(=CC=C3OCC)[S+]([O-])(=O)N4CCN(C)CC4	%	79.7
CC1=CC=C2\N=C/3N(CC[C@@]3(O)C(=O)C2=C1)C4=CC=CC=C4	%	121
CN1/C=C(\N=C(NC2=CC=C(C=C2)C(=O)N3CCOCC3)/C1=O)/C4=C(C)C(=CC=C4)NC(=O)C5=CC=C(C=C5)C(C)(C)C	%	86.6

# next molecule below
Returns the measured cell viability for the input molecule. Input: Nc1nc(Nc2ccc([S+](N)(=O)[O-])cc2)nn1C(=O)c1c(F)cccc1F
101

* * *

# Tested on: P12-Ichikawa
# MEASUREMENT_PROTOCOL: cell viability relative to DMSO control; higher = less cytotoxic
# CONDITION_DETAILS: HPLM + 10% dialyzed FBS; 48 h; 15.4 µM
# Lookup of reported cell viability keyed by entry
The response must be a number in % with no trailing unit.

Returns the measured cell viability for the input molecule. Input: COc1ccc2c(OCc3nnc4ccc(-c5ccccc5)nn34)ccnc2c1
103

Note, next up: C=CCc1cc(OC)c(O)c(C(=O)NCCO)c1
93

Note, next up: CN(C)CC[C@H](CSc1ccccc1)Nc1ccc([S+](=O)([O-])NC(=O)c2ccc(N3CCN(Cc4ccccc4-c4ccc(Cl)cc4)CC3)cc2)cc1[N+](=O)[O-]
7.53

* * *

# Tested on: NOMO1
# MEASUREMENT_PROTOCOL: cell viability relative to DMSO control; higher = less cytotoxic
# CONDITION_DETAILS: HPLM + 10% dialyzed FBS; 48 h; 46.1 µM
// assign t if cell viability falls strictly below 40%, else f (ties count as f)

Here are 6 molecules together with their reported answers.
MOLECULE	MEASUREMENT_TARGET	CAT
O=C(c1ccc(/C=C/c2n[nH]c3ccccc23)cc1)N1CCNCC1	NOMO1	f
O=C(NCCO[N+](=O)[O-])c1cccnc1	NOMO1	f
CO[C@@H]1[C@@H](OC(N)=O)[C@@H](O)[C@H](OC2=CC=C3\C(=C(NC(=O)C4=CC=C([O-])C(=C4)CC=C(C)C)/C(=O)OC3=C2C)O)OC1(C)C	NOMO1	t
Nc1nc(Nc2ccc([S+](N)(=O)[O-])cc2)nn1C(=O)c1c(F)cccc1F	NOMO1	t
CO[C@H]1/C=C/O[C@@]2(C)Oc3c(C)c(O)c4c(O)c(c(/C=N\N5CCN(C6CCCC6)CC5)c(O)c4c3C2=O)NC(=O)/C(C)=C\C=C\[C@H](C)[C@H](O)[C@@H](C)[C@@H](O)[C@@H](C)[C@H](OC(C)=O)[C@@H]1C	NOMO1	t
COC/1=C/[C@@H]2[C@@H]3CC4=C(C(=C(OC)C=C4)O)[C@]2(CCN3C)CC1=O	NOMO1	f

Quick check: cell viability of CCC(=O)OC1CCC2C3CCC/4=C/C(=O)CC[C@@]4(C)C3CC[C@]12C (stereo partly specified) under 40%?
f

Note, next up: CN(c1nccc(=O)[nH]1)C1CCN(c2nc3ccccc3n2Cc2ccc(F)cc2)CC1
f

Note, next up: COc1nccc(-c2c(-c3ccc(F)cc3)ncn2C2CCC(O)CC2)n1 (stereo unspecified)
f

Note, next up: O=[S+]([O-])(O)c1ccc2cc(/N=N/c3cc([S+](=O)([O-])O)c4cccnc4c3O)ccc2c1
f

Note, next up: OC1=CC2=C(C(=O)\C=C(/O2)C3=CC=CC=C3)C(=C1O)O
f
